- protocol.description: Compound was tested for lethal dose administered in single dose intraperitoneally that killed 50% of the animals
- Type: ADME, organism-based
- condition.details: mouse, in vivo, ip

{"compound": "O=C(CBr)NC1C(O)OC(CO)C(O)C1O (stereo in doubt; form 1)", "LD50": "> 3200 µmol/kg"}
{"compound": "CC(=O)OCC1OC(OC(C)=O)C(NC(=O)CCl)C(OC(C)=O)C1OC(C)=O (stereo in doubt; form 3)", "LD50": "1600 µmol/kg"}
{"compound": "CC(=O)OCC1OC(OC(C)=O)C(NC(=O)CBr)C(OC(C)=O)C1OC(C)=O (stereo in doubt; form 1)", "LD50": "240 µmol/kg"}
